system: human colon cancer cell line (HT-29); assay: MTT cell proliferation assay, cytotoxicity and GI50, HT-29; details: read-out: Cytotoxic activity (GI50 Values) HT-29; HT-29 cells, exposed 3 days, MTT, four independent replicates
TEST_READOUT: GI50 (nM)
State just the number; it will be interpreted in nM.

Challenge: Dear colleague, I am looking for the recorded GI50 of the following compound: CC[C@H](C)[C@H](NC(=O)[C@H]1CCCCN1C)C(=O)N(COC(=O)CC(C)C)[C@H](C[C@@H](OC(C)=O)c1nc(C(=O)N[C@@H](Cc2ccc(O)cc2)C[C@H](C)C(=O)O)cs1)C(C)C [tubulysin A, reference compound]
Response given: 0.32
